target: Thromboxane A2 receptor (Homo sapiens); assay type: functional, cell-based; also: assay procedure not described here
Sequence (P21731 whole entry): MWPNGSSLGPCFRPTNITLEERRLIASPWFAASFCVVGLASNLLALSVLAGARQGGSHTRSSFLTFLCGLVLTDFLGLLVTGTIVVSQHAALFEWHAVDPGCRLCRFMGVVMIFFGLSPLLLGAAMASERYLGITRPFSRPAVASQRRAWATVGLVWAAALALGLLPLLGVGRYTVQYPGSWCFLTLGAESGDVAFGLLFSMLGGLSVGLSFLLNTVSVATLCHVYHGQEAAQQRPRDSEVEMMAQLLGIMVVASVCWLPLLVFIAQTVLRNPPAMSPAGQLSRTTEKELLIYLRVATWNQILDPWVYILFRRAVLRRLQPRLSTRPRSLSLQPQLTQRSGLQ
experimental readout: AC50

These recorded examples may help you get a feel for the data.
> print(dat)
                                    compound  experimental.readout  observed
 1  C[C@H]1C[C@H]2[C@@H]3CCC4=CC(=O)C=C[C@]4(C)[C@@]3(F)[C@@H](O)C[C@]2(C)[C@@]1(O)C(=O)CO                  AC50   > 30 µM
 2                        Cc1ncc(CO)c(CO)c1O                  AC50   > 30 µM
 3  COCC(=O)O[C@]1(CCN(C)CCCc2nc3ccccc3[nH]2)CCc2cc(F)ccc2[C@@H]1C(C)C                  AC50   21.9 µM
 4                       NCC1(CC(=O)O)CCCCC1                  AC50   > 30 µM
 5  CN1C(C(=O)Nc2ccccn2)=C(OC(=O)/C=C/c2ccccc2)c2ccccc2S1(=O)=O [PIROXICAM CINNAMATE]                  AC50   > 30 µM
 6            O=C(O)[C@@H](S)[C@@H](S)C(=O)O                  AC50   > 30 µM
 7  COc1cccc2c1C(=O)c1c(O)c3c(c(O)c1C2=O)C[C@@](O)(C(=O)CO)C[C@@H]3O[C@H]1C[C@H](N)[C@H](O)[C@H](C)O1                  AC50   24.7 µM
 8  CC(C)N1CCOC(c2cccc(C(F)(F)F)c2)C1 (stereo not drawn)                  AC50   > 30 µM
 9                     CC(O)(CC(=O)O)CC(=O)O                  AC50   > 30 µM
10           Cc1c(C(C)C)c(=O)n(-c2ccccc2)n1C                  AC50   > 30 µM

Lookup: Given O=c1[nH]c(=O)n([C@H]2C[C@H](O)[C@@H](CO)O2)cc1/C=C/Br , state its recorded AC50.
Found: > 30 µM

Lookup: Given CC(=O)OCC(=O)[C@@]1(O)CC[C@H]2[C@@H]3C[C@H](C)C4=CC(=O)C=C[C@]4(C)[C@H]3[C@@H](O)C[C@@]21C [METHYLPREDNISOLONE ACETATE] , state its recorded AC50.
Found: > 30 µM
